- assaySystem: DYRK1A (Homo sapiens, UniProt Q13627)
- Construct: purchased Carna Biosciences, Inc. 04-130
- measurementNotes: Inhibition test on activity of DYRK family, mobility shift assay (MSA), DYRK1A
- Format: biochemical
- details: ATP 100 μM, FITC-labeled DYRKtide peptide substrate, room temperature 1 hour
assayEndpoint: Inhibitory Activity 1a (IC50 against DYRK1A)

Previously resolved entries follow.
| compound | result |
| --- | --- |
| CC#C[C@@H]1[C@H](CC)NC(=O)N1c1nc2c3c(ccc2s1)OCC3 (relative stereo) [Example 73] | * * * |
| CC#CC1CNC(=O)N1c1nc2c3c(ccc2s1)OCCO3 (racemic) [Example 55] | * * * |
| CC#C[C@@H]1[C@H](C)NC(=O)N1c1nc2c3c(ccc2s1)OCCO3 [Example 56] | * * * |
| CC#C[C@@H]1[C@H]([C@@H](C)O)NC(=O)N1c1nc2c3c(ccc2s1)OCC3 [Example 82] | * * * |
| CC#C[C@H]1CNC(=O)N1c1nc2c3c(ccc2s1)OCO3 [Example 3] | * * |

Sample CC#C[C@@H]1[C@H](C)NC(=O)N1c1nc2c3c(ccc2s1)OCCC3 [Example 57] ; Inhibitory Activity 1a (IC50 against DYRK1A) observed: * * *

Recorded result, CC#CC1CNC(=O)N1c1nc2c3c(ccc2s1)OCC(=O)N3C (racemic) [Example 46] , Inhibitory Activity 1a (IC50 against DYRK1A): * *

Item: CC#CC1CNC(=O)N1c1nc2c3c(ccc2s1)OCCN3 (racemic) [Example 38] | Inhibitory Activity 1a (IC50 against DYRK1A): * * *

---

- assaySystem: DYRK1A (Homo sapiens)
- Construct: purchased Carna Biosciences, Inc. 04-130
- measurementNotes: Inhibition test on activity of DYRK family, mobility shift assay (MSA), DYRK1A
- Type: biochemical
- details: ATP 100 μM, FITC-labeled DYRKtide peptide substrate, room temperature 1 hour
assayEndpoint: Inhibitory Activity 1a (IC50 against DYRK1A)

Example entries and their recorded answers appear below.
| compound | result |
| --- | --- |
| CC#CC1CNC(=O)N1c1nc2c(ccc3ncn(CC(C)(C)O)c32)s1 (racemic) | * * |
| CC#C[C@H]1[C@H](COC)NC(=O)N1c1nc2c3c(ccc2s1)OCC3 (single isomer, unassigned) [Example 76] | * * |
| CC#C[C@@H]1[C@H](COC)NC(=O)N1c1nc2c3c(ccc2s1)OCC3 (single isomer, unassigned) | * * * |
| CC#CC1CNC(=O)N1c1nc2c3c(ccc2s1)OCCN3CCO (racemic) | * * * |
| CC#C[C@@H]1[C@H](C(C)C)NC(=O)N1c1nc2c3c(ccc2s1)OCC3 | * * * |

Kindly consider the entry below.
CC#CC1CNC(=O)N1c1nc2c(ccc3ncn(C)c32)s1 (racemic) yielded Inhibitory Activity 1a (IC50 against DYRK1A) of * * *

---

- assaySystem: DYRK1A (Homo sapiens)
- Construct: purchased Carna Biosciences, Inc. 04-130
- measurementNotes: Inhibition test on activity of DYRK family, mobility shift assay (MSA), DYRK1A
- Type: biochemical
- details: ATP 100 μM, FITC-labeled DYRKtide peptide substrate, room temperature 1 hour
assayEndpoint: Inhibitory Activity 1a (IC50 against DYRK1A)

Answered examples (4):
| compound | assaySystem | result |
| --- | --- | --- |
| CC#CC1CNC(=O)N1c1nc2c3c(ccc2s1)OCCN3C (racemic) | DYRK1A (Homo sapiens) | * * * |
| CC#C[C@@H]1[C@H](C)NC(=O)N1c1nc2c3c(ccc2s1)OCC3 | DYRK1A (Homo sapiens) | * * * |
| CC#CC1CNC(=O)N1c1nc2c(ccc3nn(C)cc32)s1 (racemic) | DYRK1A (Homo sapiens) | * * * |
| CC#C[C@@H]1[C@H](C)NC(=O)N1c1nc2c3c(ccc2s1)OCO3 | DYRK1A (Homo sapiens) | * * * |

The compound listed as "CC#C[C@@H]1CNC(=O)N1c1nc2c3c(ccc2s1)OCO3" has a reported Inhibitory Activity 1a (IC50 against DYRK1A) of * * *

Memo: CC#CC1CNC(=O)N1c1nc2c(ccc3ncccc32)s1 (racemic) [Example 27] , reported Inhibitory Activity 1a (IC50 against DYRK1A): * **

Value source: patent US20230138851A1
